System: H460
Assay Protocol: tumor cell growth (CTG), H460 / NCIH460
Particulars: read-out: IC50 (uM), NCIH460 (NSCLC); 96 well CTG 2 days treatment

- Molecule: "COc1ccc(C[C@@H](C)NC[C@H](O)c2cc(O)cc(O)c2)cc1 [RR-MF, (R,R′)-4-methoxyfenoterol]"
  IC50: "> 50 µM"
- Molecule: "COc1ccc(C[C@@H](C)NC[C@H](O)c2cc(O)cc(O)c2)c2ccccc12 [(R,R′)-MNF, (R,R′)-4′-methoxy-1-naphthylfenoterol]"
  IC50: "15.4 µM"

---

Each entry below carries its reported IC50.
Tested on: LN229
Assay Protocol: [3H]-Thymidine incorporation in 96-well plates (Thy), LN229
Particulars: read-out: IC50 (uM), LN229 (CNS Cancer); 96 well Tye 1 day treatment

- Molecule: "COc1ccc(C[C@@H](C)NC[C@H](O)c2cc(O)cc(O)c2)cc1 [RR-MF, (R,R′)-4-methoxyfenoterol]"
  Censoring Qualifier: ">"
  IC50, µM: 50
- Molecule: "COc1ccc(C[C@@H](C)NC[C@H](O)c2cc(O)cc(O)c2)c2ccccc12 [(R,R′)-MNF, (R,R′)-4′-methoxy-1-naphthylfenoterol]"
  Censoring Qualifier: "="
  IC50, µM: 9.64
